Recorded chromatographic logP for the following compounds
Assay: log P measured by the procedure of Donovan and Pescatore, internally standardized with toluene and triphenylene
Assay type: physicochemical
Conditions: pH 7, measured at pH 7 (Table 22); read-out: Log P
Number only, please.

Query: // lookup chromatographic logP for `CSC(=O)c1c(C(F)F)nc(C(F)(F)F)c(C(=O)SC)c1CC(C)C`
Response: 4.28

====

Experiment: log P measured by the procedure of Donovan and Pescatore, internally standardized with toluene and triphenylene
Assay type: physicochemical
Details: pH = 7; based on logP assigned to toluene 2.605 and triphenylene 6.266
Reported property: logP, Average
Please give only the number in your answer, with no unit.

Record excerpt, results attached:
>>> val("Cc1ccc(N(SC(F)(Cl)Cl)S(=O)(=O)N(C)C)cc1")
3.930
>>> val("C#CCOC(=O)[C@@H](C)Oc1ccc(Oc2ncc(Cl)cc2F)cc1")
4.522
>>> val("CO/C=C(/C(=O)OC)c1ccccc1Oc1cc(Oc2ccccc2C#N)ncn1")
3.050

// next item, logP, Average requested
Query: Looking for the measured logP, Average of N#CC(CCc1ccc(Cl)cc1)(Cn1cncn1)c1ccccc1 (stereo not shown) , can you help?
Response: 3.730
